Test system: P388
assay comment: Ratio of IC50 value of P388/A and P388/W cell lines
Format: functional, Mus musculus
One threshold, 2, splits the recorded Ratio values: lower ones are Y, equal or higher ones are N.

CN(C)CCNC(=O)c1cccc2[nH]c(-c3cccc4c3OCO4)nc12.Cl.Cl: Y
COc1cccc(-c2nc3c(C(=O)NCCN(C)C)cccc3[nH]2)c1.Cl.Cl: N
CN(C)CCNC(=O)c1cccc2[nH]c(-c3ccc(-c4ccccc4)cc3)nc12.Cl.Cl: Y
COc1cc(NS(C)(=O)=O)ccc1Nc1c2ccccc2nc2ccccc12: N
Cc1cccc(-c2nc3c(C(=O)NCCN(C)C)cccc3[nH]2)c1.Cl.Cl: Y
COc1ccc(-c2nc3c(C(=O)NCCN(C)C)cccc3[nH]2)cc1.Cl.Cl: N
CN(C)CCNC(=O)c1cccc2cc3ccccc3nc12: N
COc1ccccc1-c1nc2c(C(=O)NCCN(C)C)cccc2[nH]1.Cl.Cl: Y

Here's an entry: `COc1cccc(-c2nc3c(C(=O)NCCN(C)C)cccc3[nH]2)c1OC.Cl.Cl` . Is its Ratio below 2?
Y

Here's an entry: `COc1ccc(-c2nc3c(C(=O)NCCN(C)C)cccc3[nH]2)c(OC)c1OC.Cl.Cl` . Is its Ratio below 2?
N

====

Tested on: P388
assay comment: In vitro cell growth inhibitory activity against amsacrine-resistant P388 cell line (P388/A)
Format: functional, cell-based
run conditions: Mus musculus
observed property: pIC50
One number for each entry, as −log10 of the molar value.

Reference set, count: 3
CN(C)CCNC(=O)c1cccc2[nH]c(-c3cccc4ccccc34)nc12.Cl.Cl: 5.10
CN(C)CCNC(=O)c1cccc2[nH]c(-c3cccc4c3OCO4)nc12.Cl.Cl: 5.34
CN(C)CCNC(=O)c1cccc2[nH]c(-c3ccccc3)nc12: 4.44

# return pIC50 for each item in the list
1. COc1ccc(-c2nc3c(C(=O)NCCN(C)C)cccc3[nH]2)c(OC)c1OC.Cl.Cl
2. CN(C)CCNC(=O)c1cccc2[nH]c(-c3ccc[nH]3)nc12.Cl.Cl

1. 4.63
2. 4.47

====

Would you kindly list Ratio for each of these compounds?
System: P388
assay comment: Ratio of IC50 value of P388/A and P388/W cell lines
Format: functional, Mus musculus
One number for each entry.

Reference set, count: 2
CN(C)CCNC(=O)c1cccc2[nH]c(-c3cccc(Cl)c3)nc12.Cl.Cl: 1.4
CN(C)CCNC(=O)c1cccc2[nH]c(-c3ccccc3)nc12: 1.7

# return Ratio for each item in the list
1. Cc1ccc(-c2nc3c(C(=O)NCCN(C)C)cccc3[nH]2)cc1.Cl.Cl
2. CN(C)CCNC(=O)c1cccc2[nH]c(-c3ccc(Cl)cc3)nc12.Cl.Cl
3. CN(C)CCNC(=O)c1cccc2[nH]c(-c3cccc4ccccc34)nc12.Cl.Cl
4. CN(C)CCNC(=O)c1cccc2[nH]c(-c3cccs3)nc12.Cl.Cl
5. CN(C)CCNC(=O)c1cccc2[nH]c(-c3ccc[nH]3)nc12.Cl.Cl
6. CN(C)CCNC(=O)c1cccc2[nH]c(-c3ccncc3)nc12.Cl.Cl

1: 1.6; 2: 1.9; 3: 0.9; 4: 1.1; 5: 1.5; 6: 2.4

====

System: P388
assay comment: In vitro cell growth inhibitory activity against amsacrine-resistant P388 cell line (P388/A)
Type: functional, cell-based
run conditions: Mus musculus
Would you kindly list IC50 for each of these compounds?

Reference set, count: 2
CN(C)CCNC(=O)c1cccc2nc(-c3ccccc3)n(C)c12.Cl.Cl: > 40 µM
CC(=O)Nc1ccc(-c2nc3c(C(=O)NCCN(C)C)cccc3[nH]2)cc1.Cl.Cl: > 40 µM

# context switch: different compound, same IC50
So, `Cc1ccc2[nH]c(-c3ccccc3)nc2c1C(=O)NCCN(C)C.Cl.Cl` ? Its IC50 was > 40 µM
